- target.entity: UniProt:P42338
- Sequence (P42338 whole entry, canonical isoform): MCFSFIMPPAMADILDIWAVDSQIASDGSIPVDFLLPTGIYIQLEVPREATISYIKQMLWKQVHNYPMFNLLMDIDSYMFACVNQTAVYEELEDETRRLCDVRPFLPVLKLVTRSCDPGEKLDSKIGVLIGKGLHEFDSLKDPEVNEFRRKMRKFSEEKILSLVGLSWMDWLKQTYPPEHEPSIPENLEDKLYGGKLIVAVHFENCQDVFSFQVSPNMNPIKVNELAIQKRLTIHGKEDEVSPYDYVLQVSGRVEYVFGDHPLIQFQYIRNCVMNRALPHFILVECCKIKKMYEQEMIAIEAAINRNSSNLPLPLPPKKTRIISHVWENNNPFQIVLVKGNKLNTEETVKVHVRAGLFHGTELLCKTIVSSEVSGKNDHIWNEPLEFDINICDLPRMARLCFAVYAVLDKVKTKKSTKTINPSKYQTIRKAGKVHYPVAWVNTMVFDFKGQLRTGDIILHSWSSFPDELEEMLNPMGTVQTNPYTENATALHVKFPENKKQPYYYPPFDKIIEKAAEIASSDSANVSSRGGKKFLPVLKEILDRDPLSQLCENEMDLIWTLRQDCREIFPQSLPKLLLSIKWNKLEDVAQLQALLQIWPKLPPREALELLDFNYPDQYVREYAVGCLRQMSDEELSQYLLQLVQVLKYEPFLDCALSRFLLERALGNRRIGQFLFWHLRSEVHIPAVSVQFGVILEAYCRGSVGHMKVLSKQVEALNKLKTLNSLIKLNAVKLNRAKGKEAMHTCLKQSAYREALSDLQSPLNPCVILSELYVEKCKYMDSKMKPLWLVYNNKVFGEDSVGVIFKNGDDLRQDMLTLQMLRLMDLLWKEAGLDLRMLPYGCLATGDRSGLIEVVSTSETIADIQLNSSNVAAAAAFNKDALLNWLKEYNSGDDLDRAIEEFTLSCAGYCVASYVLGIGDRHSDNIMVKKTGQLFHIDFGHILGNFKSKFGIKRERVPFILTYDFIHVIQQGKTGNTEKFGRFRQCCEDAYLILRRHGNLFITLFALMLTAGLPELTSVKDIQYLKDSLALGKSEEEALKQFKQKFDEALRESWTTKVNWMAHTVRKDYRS
- Sequence (P27986 whole entry partner, canonical isoform): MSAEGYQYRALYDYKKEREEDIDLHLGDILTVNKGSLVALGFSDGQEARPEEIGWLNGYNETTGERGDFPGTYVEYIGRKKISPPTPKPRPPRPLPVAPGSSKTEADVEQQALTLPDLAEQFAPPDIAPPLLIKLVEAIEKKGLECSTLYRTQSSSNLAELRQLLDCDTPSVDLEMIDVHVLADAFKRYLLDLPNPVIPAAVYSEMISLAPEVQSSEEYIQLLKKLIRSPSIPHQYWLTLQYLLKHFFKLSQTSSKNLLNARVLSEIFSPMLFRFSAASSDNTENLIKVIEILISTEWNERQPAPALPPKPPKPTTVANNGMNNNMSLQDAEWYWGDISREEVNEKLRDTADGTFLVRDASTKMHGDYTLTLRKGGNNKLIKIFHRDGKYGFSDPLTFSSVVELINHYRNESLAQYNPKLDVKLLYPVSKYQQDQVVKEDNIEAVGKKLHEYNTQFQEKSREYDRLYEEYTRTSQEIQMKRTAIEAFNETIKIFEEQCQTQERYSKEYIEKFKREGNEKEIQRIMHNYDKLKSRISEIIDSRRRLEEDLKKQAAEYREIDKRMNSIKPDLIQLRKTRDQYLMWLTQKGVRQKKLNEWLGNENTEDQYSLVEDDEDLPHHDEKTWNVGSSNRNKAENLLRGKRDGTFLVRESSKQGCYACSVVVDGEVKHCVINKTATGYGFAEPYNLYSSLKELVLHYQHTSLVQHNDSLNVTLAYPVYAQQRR
- procedure.details: TR-FRET enzymatic activity assay against PI3K isoforms
- test.context: PI3Kβ, TR-FRET, 2×Km ATP, 30 minutes at 25° C.
endpoint: IC50 (nM)

1. CC[C@H](Nc1ncnc(N)c1C#N)c1nc2cccc(Cl)c2c(=O)n1CCCN
250

P. C[C@H](NC(=O)c1nccnc1N)c1nc2cccc(Cl)c2c(=O)n1CCCN
Q. C[C@H](Nc1nc(N)nc(N)c1C#N)c1nc2cccc(Cl)c2c(=O)n1CCCS(C)(=O)=O
For the pair P and Q , which member has the lower IC50 number? // output: label of the selected item
Q
(Q: 40 nM, P: 360 nM)

====

- target.entity: UniProt:O00329
- procedure.details: TR-FRET enzymatic activity assay against PI3K isoforms
- test.context: 2×Km ATP, 30 minutes at 25° C.
endpoint: IC50 (nM)

1. COCCCn1c([C@H](C)Nc2nc(N)nc(N)c2C#N)nc2c(F)ccc(F)c2c1=O
14

a. Cc1cccc2nc([C@H](C)Nc3ncnc(N)c3C#N)n(CCCN)c(=O)c12
b. C[C@H](Nc1ncnc(N)c1C#N)c1nc2cccc(Cl)c2c(=O)n1CCCN1CCCCC1
c. CC[C@H](Nc1nc(N)nc(N)c1C#N)c1nc2cccc(Cl)c2c(=O)n1CCCN
d. NC(=O)CCCn1c([C@@H](Nc2nc(N)nc(N)c2Cl)C2CC2)nc2cccc(Cl)c2c1=O
List by increasing IC50. Reply with the item labels sorted in the order that was asked for.
d, b, a, c

====

- target.entity: PI3Kγ (Homo sapiens (Human))
- Sequence (P48736 whole entry, canonical isoform): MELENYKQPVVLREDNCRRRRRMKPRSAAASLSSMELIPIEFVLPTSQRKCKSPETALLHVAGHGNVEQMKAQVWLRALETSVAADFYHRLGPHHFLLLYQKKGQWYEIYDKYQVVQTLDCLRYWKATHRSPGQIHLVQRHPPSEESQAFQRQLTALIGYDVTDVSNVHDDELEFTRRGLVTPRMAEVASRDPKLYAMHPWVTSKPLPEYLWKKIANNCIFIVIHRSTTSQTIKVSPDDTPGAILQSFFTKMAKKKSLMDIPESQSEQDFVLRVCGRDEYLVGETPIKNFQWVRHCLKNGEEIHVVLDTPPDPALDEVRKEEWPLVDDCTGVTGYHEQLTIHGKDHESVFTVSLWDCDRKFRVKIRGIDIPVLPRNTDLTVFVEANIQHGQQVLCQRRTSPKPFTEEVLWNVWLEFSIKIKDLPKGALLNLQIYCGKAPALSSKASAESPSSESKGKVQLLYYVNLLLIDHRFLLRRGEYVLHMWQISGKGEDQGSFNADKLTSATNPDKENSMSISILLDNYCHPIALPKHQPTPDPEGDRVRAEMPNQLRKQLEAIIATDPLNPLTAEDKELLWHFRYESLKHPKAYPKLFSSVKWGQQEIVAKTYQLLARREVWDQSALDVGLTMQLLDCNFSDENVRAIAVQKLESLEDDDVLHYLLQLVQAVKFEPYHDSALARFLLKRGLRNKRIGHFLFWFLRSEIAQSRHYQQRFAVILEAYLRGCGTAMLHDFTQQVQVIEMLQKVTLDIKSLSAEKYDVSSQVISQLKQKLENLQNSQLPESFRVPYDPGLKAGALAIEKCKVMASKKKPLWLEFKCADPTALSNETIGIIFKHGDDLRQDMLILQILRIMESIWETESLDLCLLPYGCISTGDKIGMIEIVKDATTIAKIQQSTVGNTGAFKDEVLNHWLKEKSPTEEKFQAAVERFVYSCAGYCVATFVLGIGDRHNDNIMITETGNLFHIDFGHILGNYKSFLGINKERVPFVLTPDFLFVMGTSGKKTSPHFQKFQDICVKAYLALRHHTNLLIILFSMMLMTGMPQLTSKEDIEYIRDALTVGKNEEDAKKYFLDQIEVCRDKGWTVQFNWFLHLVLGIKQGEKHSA
- procedure.details: TR-FRET enzymatic activity assay against PI3K isoforms
- test.context: 2×Km ATP, 30 minutes at 25° C.
pIC50: −log10 of the molar value.
endpoint: pIC50

1) CC(CN)Cn1c([C@H](C)Nc2ncnc(N)c2C#N)nc2cccc(Cl)c2c1=O (stereo partly shown) [Compound 27]
≤ 5.00
2) C[C@H](Nc1nc(N)nc(N)c1C#N)c1nc2cccc(Cl)c2c(=O)n1N(CCN)Cc1ccccc1 [Compound 10]
≤ 5.00
3) C[C@H](Nc1ncnc(N)c1C#N)c1nc2cccc(Cl)c2c(=O)n1CCN1CCCC1 [Compound 136]
≤ 5.00
4) Nc1nc(N)c(Cl)c(N[C@H](c2nc3c(Cl)ccc(Cl)c3c(=O)n2[C@H]2C[C@@H](O)C2)C2CC2)n1 [Compound 95]
≤ 5.00
5) C[C@H](Nc1ncnc2[nH]cnc12)c1nc2cccc(Cl)c2c(=O)n1CCCN1CCOCC1 [Compound 19]
≤ 5.00
6) C[C@H](Nc1ncnc(N)c1C#N)c1nc2cccc(Cl)c2c(=O)n1N(C)CCN [Compound 16]
≤ 5.00
7) CC(C)C[C@H](Nc1ncnc(N)c1C#N)c1nc2cccc(Cl)c2c(=O)n1CCCN [Compound 33]
≤ 5.00
8) Cc1ncnc(N[C@@H](C)c2nc3cccc(Cl)c3c(=O)n2CCCN)c1C#N [Compound 23]
≤ 5.00
9) Cc1nc(N)nc(N[C@@H](C)c2nc3cccc(Cl)c3c(=O)n2CCCN(C)Cc2ccccc2)c1C#N [Compound 61]
5.18
10) CNCCCn1c([C@H](C)Nc2nc(N)nc(C)c2C#N)nc2cccc(Cl)c2c1=O [Compound 41]
5.74

Data request, read-out pIC50, for CC(CCN)n1c([C@H](C)Nc2ncnc(N)c2C#N)nc2cccc(Cl)c2c1=O (stereo partly shown) [Compound 24]
≤ 5.00

Data request, read-out pIC50, for CNCCCn1c([C@H](C)Nc2ncnc(N)c2C#N)nc2cccc(Cl)c2c1=O [Compound 31]
≤ 5.00

Data request, read-out pIC50, for C[C@H](Nc1ncnn2ccnc12)c1nc2cccc(Cl)c2c(=O)n1Cc1cc[nH]n1 [Compound 78]
5.52

Data request, read-out pIC50, for C[C@H](Nc1nc(N)nc(N)c1C#N)c1nc2cccc(Cl)c2c(=O)n1N(C)CCN [Compound 14]
5.72

Data request, read-out pIC50, for NCCCn1c([C@@H](Nc2ncnc3ccc(Cl)nc23)C2CC2)nc2cccc(Cl)c2c1=O [Compound 48]
6.05

Data request, read-out pIC50, for C[C@H](Nc1ncnc(N)c1C#N)c1nc2cccc(Cl)c2c(=O)n1CCCCN [Compound 28]
≤ 5.00

====

- target.entity: PI3Kδ (Homo sapiens (Human), UniProt O00329)
- Sequence (O00329 whole entry, canonical isoform): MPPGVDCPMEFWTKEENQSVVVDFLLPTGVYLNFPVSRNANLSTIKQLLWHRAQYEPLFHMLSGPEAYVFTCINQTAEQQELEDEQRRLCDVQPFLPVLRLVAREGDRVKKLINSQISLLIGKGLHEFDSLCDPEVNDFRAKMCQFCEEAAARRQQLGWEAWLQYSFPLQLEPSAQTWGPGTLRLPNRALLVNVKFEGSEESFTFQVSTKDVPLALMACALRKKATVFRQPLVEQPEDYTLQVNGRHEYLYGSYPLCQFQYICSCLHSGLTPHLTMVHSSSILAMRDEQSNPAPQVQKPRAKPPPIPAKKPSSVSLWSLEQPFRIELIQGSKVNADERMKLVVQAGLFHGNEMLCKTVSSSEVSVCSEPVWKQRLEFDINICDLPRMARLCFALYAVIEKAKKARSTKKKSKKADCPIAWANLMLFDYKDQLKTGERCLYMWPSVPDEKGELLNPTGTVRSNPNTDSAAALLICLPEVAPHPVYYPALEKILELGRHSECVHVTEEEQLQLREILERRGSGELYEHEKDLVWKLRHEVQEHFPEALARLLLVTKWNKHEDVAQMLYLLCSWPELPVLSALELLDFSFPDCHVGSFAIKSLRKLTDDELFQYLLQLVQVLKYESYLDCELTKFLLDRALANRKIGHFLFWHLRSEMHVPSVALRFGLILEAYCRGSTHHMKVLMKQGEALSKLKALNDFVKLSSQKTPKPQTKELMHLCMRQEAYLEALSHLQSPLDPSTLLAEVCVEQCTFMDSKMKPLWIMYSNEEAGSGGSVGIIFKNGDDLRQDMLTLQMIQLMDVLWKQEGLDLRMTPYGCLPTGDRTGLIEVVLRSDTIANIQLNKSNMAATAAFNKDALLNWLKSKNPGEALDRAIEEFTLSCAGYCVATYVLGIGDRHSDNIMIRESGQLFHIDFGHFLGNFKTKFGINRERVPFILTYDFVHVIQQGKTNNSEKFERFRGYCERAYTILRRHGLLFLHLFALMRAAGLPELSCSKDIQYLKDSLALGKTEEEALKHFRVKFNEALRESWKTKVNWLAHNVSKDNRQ
- Sequence (P27986 whole entry partner, canonical isoform): as the sequence (P27986 whole entry partner, canonical isoform) above
- procedure.details: TR-FRET enzymatic activity assay against PI3K isoforms
- test.context: 2×Km ATP, 30 minutes at 25° C.
pIC50: −log10 of the molar value.
endpoint: pIC50

// solved cases for pIC50 follow
1. C[C@H](Nc1nc(N)nc(N)c1C#N)c1nc2cccc(Cl)c2c(=O)n1CCC(O)CNC(C)(C)C (some centres unmarked) [Compound 75]
9.00
2. C[C@H](Nc1nc(N)nc(N)c1C#N)c1nc2cccc(Cl)c2c(=O)n1CCC(=O)N(C)C [Compound 128]
7.82
3. C[C@H](Nc1ncnc(N)c1C#N)c1nc2cccc(Cl)c2c(=O)n1N(C)CCN [Compound 17]
7.96
4. C[C@H](Nc1nc(N)nc(N)c1C#N)c1nc2cccc(Cl)c2c(=O)n1CCc1ccn[nH]1 [Compound 140]
8.22

1. C[C@H](Nc1nc(N)nc(N)c1C#N)c1nc2c(Cl)cc(F)cc2c(=O)n1[C@H]1C[C@@H](O)C1 [Compound 99]
2. COCCCn1c([C@H](C)Nc2ncnc(N)c2C#N)nc2c(F)ccc(F)c2c1=O [Compound 108]
3. C[C@H](Nc1nc(N)nc(N)c1C#N)c1nc2c(Cl)ccc(Cl)c2c(=O)n1[C@H]1C[C@@H](O)C1 [Compound 103]
4. CC(CN)n1c([C@H](C)Nc2ncnc(N)c2C#N)nc2cccc(Cl)c2c1=O (some centres unmarked) [Compound 25]
List by increasing pIC50. Reply with the item labels sorted in the order that was asked for.
4, 2, 1, 3
(4: 7.00, 2: 7.41, 1: 8.05, 3: 8.30)

====

- target.entity: PI3Kδ (Homo sapiens (Human))
- procedure.details: TR-FRET enzymatic activity assay against PI3K isoforms
- test.context: 2×Km ATP, 30 minutes at 25° C.
endpoint: IC50 (nM)

1) CS(=O)(=O)CCCn1c([C@@H](Nc2nc(N)nc(N)c2C#N)C2CC2)nc2c(Cl)cc(F)cc2c1=O [Compound 120]
8
2) C[C@H](Nc1nc(N)nc(N)c1C#N)c1nc2cccc(Cl)c2c(=O)n1CCC#N [Compound 104]
9
3) C[C@H](Nc1nc(N)nc(N)c1C#N)c1nc2cccc(Cl)c2c(=O)n1N(C)CCN [Compound 14]
2

A. C[C@H](Nc1ncnc(N)c1C#N)c1nc2cccc(Cl)c2c(=O)n1CCN [Compound 26]
B. NCCCn1c([C@@H](Nc2ncnc3scnc23)C2CC2)nc2cccc(Cl)c2c1=O [Compound 45]
Which record would sort first by descending IC50, A or B ? // output: label of the selected item
A

====

- target.entity: PI3Kδ (Homo sapiens (Human))
- procedure.details: TR-FRET enzymatic activity assay against PI3K isoforms
- test.context: 2×Km ATP, 30 minutes at 25° C.
endpoint: IC50 (nM)

1) COC(C)(C)CCn1c([C@H](C)Nc2nc(N)nc(N)c2C#N)nc2cccc(Cl)c2c1=O
2

A. N#CCCn1c([C@@H](Nc2nc(N)nc(N)c2Cl)C2CC2)nc2cccc(Cl)c2c1=O
B. CC[C@H](Nc1nc(N)nc(N)c1C#N)c1nc2cccc(Cl)c2c(=O)n1CCCCC#N
For the pair A and B , which member has the lower IC50 number? // output: label of the selected item
A

====

- target.entity: PI3Kδ (Homo sapiens (Human))
- procedure.details: TR-FRET enzymatic activity assay against PI3K isoforms
- test.context: 2×Km ATP, 30 minutes at 25° C.
endpoint: IC50 (nM)

// solved cases for IC50 follow
1) C[C@H](Nc1ncnc2[nH]cnc12)c1nc2cccc(Cl)c2c(=O)n1CCCN1CCOCC1 [Compound 19]
14
2) C[C@H](Nc1ncnc(N)c1C#N)c1nc2cccc(Cl)c2c(=O)n1CC1CCCCN1 (some centres unmarked) [Compound 91]
95
3) N#Cc1c(N)nc(N)nc1N[C@H](c1nc2cccc(Cl)c2c(=O)n1CCCNC1CCC(F)(F)CC1)C1CC1 [Compound 56]
0.4
4) CC(=O)NCCCn1c([C@H](C)Nc2ncnc(N)c2C#N)nc2cccc(Cl)c2c1=O [Compound 51]
8

1. C[C@H](Nc1ncnc(N)c1C#N)c1nc2cccc(Cl)c2c(=O)n1N(CCN)Cc1ccccc1 [Compound 13]
2. C[C@H](Nc1nc(N)nc(N)c1C#N)c1nc2cccc(Cl)c2c(=O)n1C[C@@H]1CCNC1 [Compound 126]
3. C[C@H](Nc1nc(N)nc(N)c1C#N)c1nc2cccc(Cl)c2c(=O)n1CCCNCc1ccccc1 [Compound 8]
4. CS(=O)(=O)CCCn1c([C@@H](Nc2nc(N)nc(N)c2C#N)C2CC2)nc2c(Cl)ccc(Cl)c2c1=O [Compound 119]
5. C[C@H](Nc1ncnc(N)c1C#N)c1nc2cccc(Cl)c2c(=O)n1N(CCN)Cc1ccccc1 [Compound 12]
Task field, ranking: reported IC50, descending order. Reply with the item labels sorted in the order that was asked for.
1, 5, 3, 4, 2

A. N#CCCCn1c([C@@H](Nc2nc(N)nc(N)c2C#N)C2CC2)nc2cccc(Cl)c2c1=O [Compound 113]
B. C[C@H](Nc1ncnc(N)c1C#N)c1nc2cccc(Cl)c2c(=O)n1CC1CCCNC1 (some centres unmarked) [Compound 92]
Which record would sort first by descending IC50, A or B ? // output: label of the selected item
B
